assayed_target: NDM-1 (Klebsiella pneumoniae)
Sequence (C7C422 whole entry, looked up, species assumed): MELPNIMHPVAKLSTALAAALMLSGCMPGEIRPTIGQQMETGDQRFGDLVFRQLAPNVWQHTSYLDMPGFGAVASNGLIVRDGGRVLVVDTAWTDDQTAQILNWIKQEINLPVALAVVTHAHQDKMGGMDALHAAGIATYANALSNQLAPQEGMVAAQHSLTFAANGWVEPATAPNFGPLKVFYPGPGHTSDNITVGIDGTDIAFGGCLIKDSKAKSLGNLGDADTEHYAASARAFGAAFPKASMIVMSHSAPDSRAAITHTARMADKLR
protocol_description: biochemical
Type: biochemical
reported_conditions: fluorescence assay, CCF2-FA substrate, 1 pM enzyme, 2 hours at 25° C.; read-out: NDM-1 IC50
pIC50: −log10 of the molar value.
Lab note: anything with pIC50 at or over 10 counts as YES; the rest go in NO.

For this compound, is measured pIC50 10 or higher? `NCCNC(=O)c1cc(-c2ccc(S(=O)(=O)NCCN)c(S(N)(=O)=O)c2-c2nn[nH]n2)ccc1N`
NO

For this compound, is measured pIC50 10 or higher? `Nc1nc2c(-c3ccc(S(=O)(=O)N[C@H]4CN[C@@H](C(=O)O)C4)c(S(N)(=O)=O)c3-c3nnn[nH]3)cccc2s1`
YES

For this compound, is measured pIC50 10 or higher? `C[C@@H](CN)NS(=O)(=O)c1ccc(-c2ccnc(N)c2)c(-c2nn[nH]n2)c1S(N)(=O)=O`
NO

For this compound, is measured pIC50 10 or higher? `CC[C@@H](CN)NS(=O)(=O)c1ccc(-c2cccc3[nH]c(N)nc23)c(-c2nn[nH]n2)c1S(N)(=O)=O`
NO

For this compound, is measured pIC50 10 or higher? NCCNS(=O)(=O)c1ccc(C2=CC(N)CCC2)c(-c2nn[nH]n2)c1S(N)(=O)=O (stereo not shown)
NO

====

Tested on: Serratia marcescens expressing IMP-1 (CL5741)
Type: cell-based
reported_conditions: IMP-1 strain CL5741, with imipenem 1 μg/ml, 95% inhibition of growth
measured_property: Serratia marcescens MITC95 (µM)
Output spec: scalar in µM, unitless text.

Recorded Serratia marcescens MITC95, per entry:
- chemical_smiles: "Nc1nc2c(-c3ccc(S(=O)(=O)NC[C@@H]4CCCN4)c(S(N)(=O)=O)c3-c3nn[nH]n3)cccc2[nH]1"
  Serratia marcescens MITC95 (µM): 0.7813
- chemical_smiles: "NC[C@H](CO)NS(=O)(=O)c1ccc(-c2cccc(N)n2)c(-c2nn[nH]n2)c1S(N)(=O)=O"
  Serratia marcescens MITC95 (µM): 3.125
- chemical_smiles: "NCc1nc2c(-c3ccc(S(=O)(=O)N[C@@H](CN)CO)c(S(N)(=O)=O)c3-c3nn[nH]n3)cccc2[nH]1"
  Serratia marcescens MITC95 (µM): 1.563

Serratia marcescens MITC95 recorded for this compound, `NCc1nc2c(-c3ccc(S(=O)(=O)NC[C@H](O)CN)c(S(N)(=O)=O)c3-c3nn[nH]n3)cccc2[nH]1` , is 1.563

Serratia marcescens MITC95 recorded for this compound, `NCc1nc2c(-c3ccc(S(=O)(=O)N[C@H](CN)CO)c(S(N)(=O)=O)c3-c3nn[nH]n3)cccc2s1` , is 1.563

Serratia marcescens MITC95 recorded for this compound, `NCCNc1ncccc1-c1ccc(S(=O)(=O)N[C@@H]2CCNC2)c(S(N)(=O)=O)c1-c1nn[nH]n1` , is 1.563

Serratia marcescens MITC95 recorded for this compound, `C[C@H](CN)NS(=O)(=O)c1ccc(-c2cccc3[nH]c(CN)nc23)c(-c2nn[nH]n2)c1S(N)(=O)=O` , is 1.563

Serratia marcescens MITC95 recorded for this compound, `Nc1ncccc1-c1ccc(S(=O)(=O)NC[C@@H]2CNCCN2)c(S(N)(=O)=O)c1-c1nn[nH]n1` , is 0.7813

Serratia marcescens MITC95 recorded for this compound, `CNc1ccc(-c2ccc(S(=O)(=O)NCCN)c(S(N)(=O)=O)c2-c2nn[nH]n2)cn1` , is 0.3906

Serratia marcescens MITC95 recorded for this compound, `C[C@@H](CN)NS(=O)(=O)c1ccc(-c2cccc3sc(N)nc23)c(-c2nn[nH]n2)c1S(N)(=O)=O` , is 3.125

Serratia marcescens MITC95 recorded for this compound, `Nc1ccc(-c2ccc(S(=O)(=O)NC[C@@]3(N)CCNC3)c(S(N)(=O)=O)c2-c2nn[nH]n2)cn1` , is 0.7813

Serratia marcescens MITC95 recorded for this compound, `NS(=O)(=O)c1c(S(=O)(=O)NC[C@H]2CNCCN2)ccc(-c2cccc3[nH]cnc23)c1-c1nn[nH]n1` , is 1.563

Serratia marcescens MITC95 recorded for this compound, `Nc1nc2c(-c3ccc(S(=O)(=O)NC4CNC4)c(S(N)(=O)=O)c3-c3nn[nH]n3)cccc2[nH]1` , is 0.7383

Serratia marcescens MITC95 recorded for this compound, `NCCNS(=O)(=O)c1ccc(-c2cnc3cc[nH]c3c2)c(-c2nn[nH]n2)c1S(N)(=O)=O` , is 0.3906
